target: Macrophage colony-stimulating factor 1 receptor (Homo sapiens); settings: at 1 µM
Hi! Just check whether residual activity is below 60%. Below gives MET, equal or above gives NOT MET.

Answer whether the compound O=S(=O)(NCCNC/C=C/c1ccc(Br)cc1)c1cccc2cnccc12 has residual activity strictly less than 60%
NOT MET

Field entry: CC(C)c1nn(-c2c(Cl)cccc2Cl)c2nc(Cc3ccc(OCCO)cc3)[nH]c(=O)c12
NOT MET

Field entry: CCOC(=O)c1c(C)[nH]c(/C=C2\C(=O)Nc3ccccc32)c1C
MET

Field entry: O=C1Nc2ccccc2/C1=C\c1c(Cl)[nH]c2ccccc12
NOT MET

Field entry: O=C(O)/C=C/c1cc(Br)c(Br)c(Br)c1Br
NOT MET

Field entry: NCCNc1ncc(C(N)=O)c(Nc2cccc(C(F)(F)F)c2)n1
MET

Field entry: Nc1ncnc2[nH]nc(Nc3ccc(F)cc3)c12
NOT MET

Field entry: COc1cc2nccc(Oc3ccc(NC(=O)Nc4cc(C)on4)c(Cl)c3)c2cc1OC
MET

Field entry: NC(=O)c1cccc(-c2cc(Nc3ccc(OC(F)(F)F)cc3)ncn2)c1
NOT MET

Field entry: CCCCc1c(-c2ccc(OC)cc2)[nH]c2nccnc12
MET
